- METHOD_NOTES: Vibrio cholerae motility inhibitors, OD read-out (AID 588778)
- ASSAY_SETUP: hits give high values, concentration not given here
Among all 10,000 compounds or so, fewer than 10 were called active. The list is a sample of the results.
inhibition for assorted compounds
I only need the number, in %, no unit after it.

Below, each entry is followed by its recorded inhibition result.
>>> reported("COCCSc1ccccc1C(=O)NCc1ccc(S(N)(=O)=O)cc1")
4.8
>>> reported("COc1ccc(C(=O)N(Cc2ccc(C)o2)C2CCS(=O)(=O)C2)cc1Cl (stereo unspecified)")
1.9
>>> reported("COC(=O)C1=CN(c2ccc(F)c(F)c2)C=C(C(=O)OC)C1c1cc(OC)ccc1OC")
-1.54
>>> reported("O=C(O)CCCCN1Cc2ccccc2C1")
2.35
>>> reported("Cc1ccc(NNC(=O)C(c2ccccc2)c2ccccc2)cc1")
7.31
>>> reported("O=C(CSc1nc2ccccc2s1)NNC(=S)Nc1ccc(F)c(Cl)c1")
47.6
>>> reported("CCOc1ccc2nc(SCC(=O)Nc3ccc4c(c3)OCO4)[nH]c2c1")
4.79
>>> reported("Cc1nc(NC(=O)c2c(F)c(F)c(F)c(F)c2F)ccc1I")
13

Recorded result, COc1ccc(NC(=S)N2CCCC2C(=O)N2CCCC2)cc1 (stereo unspecified) , inhibition: 41.3

Recorded result, O=C(NCCc1ccccc1)c1ccc(CNS(=O)(=O)c2cccc(Cl)c2)cc1 , inhibition: -4.41

Recorded result, CCCCCOc1ccc(NC(=O)C(=O)NCCN2CCOCC2)cc1 , inhibition: -4.07
